target: Estrogen receptor (Homo sapiens) (UniProt P03372); experiment: qHTS assay to identify small molecule agonists of the estrogen receptor alpha (ER-alpha) signaling pathway using the BG1 cell line (AID 743079); settings: BG1Luc4E2 cells, ERE-luciferase agonist, 22 h; series mostly up to 70.3 µM; also: % is scaled to controls: 0 for no effect and ±100 for the full control effect; nearly all actives have a fitted effect of over 20% in size
Sequence (P03372 whole entry, looked up): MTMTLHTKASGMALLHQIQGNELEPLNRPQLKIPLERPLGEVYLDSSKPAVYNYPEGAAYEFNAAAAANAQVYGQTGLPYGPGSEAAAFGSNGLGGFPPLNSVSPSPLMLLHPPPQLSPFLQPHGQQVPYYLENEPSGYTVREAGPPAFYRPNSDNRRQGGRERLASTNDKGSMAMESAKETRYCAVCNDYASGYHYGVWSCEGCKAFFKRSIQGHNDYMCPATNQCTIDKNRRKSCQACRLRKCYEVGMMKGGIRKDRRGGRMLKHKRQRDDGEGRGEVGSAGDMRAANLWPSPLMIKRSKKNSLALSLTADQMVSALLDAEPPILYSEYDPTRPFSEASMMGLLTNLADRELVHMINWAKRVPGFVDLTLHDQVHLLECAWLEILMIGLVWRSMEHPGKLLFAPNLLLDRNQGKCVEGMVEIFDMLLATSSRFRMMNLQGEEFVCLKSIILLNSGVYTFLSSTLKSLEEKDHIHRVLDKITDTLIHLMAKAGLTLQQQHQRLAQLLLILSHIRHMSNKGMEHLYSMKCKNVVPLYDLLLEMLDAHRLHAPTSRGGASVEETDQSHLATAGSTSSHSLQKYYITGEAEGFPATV
Inconclusive results are not listed. Activity calls are given as the source filed them. Calls follow the shape of the dose curve; as a rule, active = well fitted activation curve with a large enough effect in the repeat runs; inconclusive = weak or mixed curves, or effect the other way; inactive = no such curve, though single readings can be large or run the other way.

>  <molecule>
Cc1cccn2c(=O)c(-c3nnn[nH]3)cnc12

>  <outcome>
inactive

$$$$
>  <molecule>
CC(=O)c1ccccc1O

>  <outcome>
inactive

$$$$
>  <molecule>
CCCCC/C=C\CCC=O

>  <outcome>
inactive

$$$$
>  <molecule>
Cc1c(O)cccc1O

>  <outcome>
inactive

$$$$
>  <molecule>
O=c1cc(CO)occ1O

>  <outcome>
inactive

$$$$
>  <molecule>
NC(=O)Nc1ccccc1

>  <outcome>
inactive

$$$$
>  <molecule>
N[C@H]1CN(c2c(F)cc3c(=O)c(C(=O)O)cn(C4C[C@H]4F)c3c2Cl)CC12CC2 (some centres undefined)

>  <outcome>
inactive

$$$$
>  <molecule>
Cc1cccc(C)c1NC(=O)C(C)N (centres undefined)

>  <outcome>
inactive

$$$$
>  <molecule>
c1ccc(CC2=NCCN2)cc1

>  <outcome>
inactive

$$$$
>  <molecule>
NCCCNCCSP(=O)(O)O

>  <outcome>
inactive

$$$$
>  <molecule>
O=C(O)CCCl

>  <outcome>
inactive

$$$$
>  <molecule>
CC(=O)OCC(=O)[C@@]1(O)CC[C@H]2[C@@H]3CCC4=CC(=O)CC[C@]4(C)[C@H]3C(=O)C[C@@]21C

>  <outcome>
inactive

$$$$
>  <molecule>
O=Cc1cccc([N+](=O)[O-])c1

>  <outcome>
inactive

$$$$
>  <molecule>
O=[N+]([O-])c1ccc(F)cc1F

>  <outcome>
inactive

$$$$

###

experiment: qHTS assay for small molecule agonists of the antioxidant response element (ARE) signaling pathway - cell viability counter screen (AID 743203); conditions: ARE-bla HepG2 viability, CellTiter-Glo luminescence, 16 h; series mostly up to 73.3 µM; also: % is scaled to controls: 0 for no effect and ±100 for the full control effect; nearly all actives have a fitted effect of over 55% in size
Results filed as inconclusive are left out. Activity calls are given as the source filed them. The call rests on the fitted dose curve.

>  <compound>
CCOC(=O)Nc1ccc(NCc2ccc(F)cc2)nc1N

>  <viability change, negative = cytotoxic>
inactive

$$$$
>  <compound>
COc1ccccc1OCC(O)CN1CCN(CC(=O)Nc2c(C)cccc2C)CC1 (stereo not drawn)

>  <viability change, negative = cytotoxic>
inactive

$$$$
>  <compound>
CCOC(=O)CC(C)=O

>  <viability change, negative = cytotoxic>
inactive

$$$$
>  <compound>
O=C(CCCN1CCC(O)(c2cccc(C(F)(F)F)c2)CC1)c1ccc(F)cc1

>  <viability change, negative = cytotoxic>
inactive

$$$$
>  <compound>
C=CCCCCCCCCC=O

>  <viability change, negative = cytotoxic>
inactive

$$$$
>  <compound>
O=C1OC(=O)C2CCCCC12 (stereo not drawn)

>  <viability change, negative = cytotoxic>
inactive

$$$$
>  <compound>
CCCN(CCC)CCc1cccc2c1CC(=O)N2

>  <viability change, negative = cytotoxic>
inactive

$$$$
>  <compound>
CC(C(=O)O)c1ccc(CC2CCCC2=O)cc1 (stereo not drawn)

>  <viability change, negative = cytotoxic>
inactive

$$$$
>  <compound>
CC(=O)OCC(=O)[C@@]1(O)CC[C@H]2[C@@H]3CCC4=CC(=O)CC[C@]4(C)[C@H]3C(=O)C[C@@]21C

>  <viability change, negative = cytotoxic>
inactive

$$$$
>  <compound>
O=C1CCCN1C1CCCCC1

>  <viability change, negative = cytotoxic>
inactive

$$$$
>  <compound>
NCCCNCCSP(=O)(O)O

>  <viability change, negative = cytotoxic>
1.31% [at 8.36 µM] (inactive)

$$$$
>  <compound>
O=c1cc(CO)occ1O

>  <viability change, negative = cytotoxic>
inactive

$$$$
>  <compound>
NC(=O)c1cn(Cc2c(F)cccc2F)nn1

>  <viability change, negative = cytotoxic>
inactive

$$$$
>  <compound>
Cc1c(O)cccc1O

>  <viability change, negative = cytotoxic>
inactive

$$$$
>  <compound>
CCOC(=O)c1cccc(N)c1

>  <viability change, negative = cytotoxic>
inactive

$$$$
>  <compound>
CC(C)(CC(=O)O)C(=O)O

>  <viability change, negative = cytotoxic>
inactive

$$$$
>  <compound>
CC(=O)CC(C)C

>  <viability change, negative = cytotoxic>
inactive

$$$$
>  <compound>
C[C@H]1C[C@@H](O)CC(C)(C)C1

>  <viability change, negative = cytotoxic>
inactive

$$$$
>  <compound>
C[N+](C)(C)CCCCCC[N+](C)(C)C

>  <viability change, negative = cytotoxic>
inactive

$$$$
>  <compound>
FC(F)OC(Cl)C(F)(F)F (stereo not drawn)

>  <viability change, negative = cytotoxic>
inactive

$$$$
>  <compound>
CCC(C)S (stereo not drawn)

>  <viability change, negative = cytotoxic>
9.9% [at 3.74 µM] (inactive)

$$$$
>  <compound>
CC(C)(O)C#CC(C)(C)O

>  <viability change, negative = cytotoxic>
inactive

$$$$
>  <compound>
OCCCC1CCCCC1

>  <viability change, negative = cytotoxic>
inactive

$$$$
>  <compound>
OC(CCN1CCCCC1)(c1ccccc1)C1CC2C=CC1C2 (stereo not drawn)

>  <viability change, negative = cytotoxic>
inactive

$$$$
>  <compound>
COc1ccc2c(c1)CCCC2=O

>  <viability change, negative = cytotoxic>
inactive

$$$$
>  <compound>
Nc1cc(=O)[nH]c(N)n1

>  <viability change, negative = cytotoxic>
inactive

$$$$
>  <compound>
COC(=O)CC(C)=O

>  <viability change, negative = cytotoxic>
inactive

$$$$
>  <compound>
Cc1cc2c(cc1S(N)(=O)=O)S(=O)(=O)CCC2

>  <viability change, negative = cytotoxic>
inactive

$$$$
>  <compound>
C=C(C)CS(=O)(=O)O

>  <viability change, negative = cytotoxic>
inactive

$$$$
>  <compound>
CCC(C)C1CCCCC1=O (stereo not drawn)

>  <viability change, negative = cytotoxic>
inactive

$$$$
>  <compound>
NC(=O)COCCN1CCN(C(c2ccccc2)c2ccc(Cl)cc2)CC1 (stereo not drawn)

>  <viability change, negative = cytotoxic>
inactive

$$$$
>  <compound>
Cc1ccc(Cl)cc1Cl

>  <viability change, negative = cytotoxic>
inactive

$$$$
>  <compound>
NS(=O)(=O)c1cc2c(cc1Cl)NC(C1CC3C=CC1C3)NS2(=O)=O (stereo not drawn)

>  <viability change, negative = cytotoxic>
inactive

$$$$
>  <compound>
CCCCCOC(=O)CCCCC

>  <viability change, negative = cytotoxic>
inactive

$$$$
>  <compound>
CCOc1ccc(C(=O)OCCN(CC)CC)cc1

>  <viability change, negative = cytotoxic>
inactive

$$$$
>  <compound>
CC(C)CNCC(C)C

>  <viability change, negative = cytotoxic>
inactive

$$$$
>  <compound>
Cc1cc(O)cc2c1O[C@](C)(CCC[C@H](C)CCC[C@H](C)CCCC(C)C)CC2

>  <viability change, negative = cytotoxic>
inactive

$$$$
>  <compound>
CCS(=O)(=O)c1ccc(OC)c(C(=O)OC)c1

>  <viability change, negative = cytotoxic>
inactive

$$$$
>  <compound>
CCN(CC)CCOCCOC(=O)C1(c2ccccc2)CCCC1

>  <viability change, negative = cytotoxic>
inactive

$$$$
>  <compound>
Brc1c(NC2=NCCN2)ccc2nccnc12

>  <viability change, negative = cytotoxic>
inactive

$$$$
>  <compound>
N[C@H](C(=O)O)c1ccc(O)cc1

>  <viability change, negative = cytotoxic>
inactive

$$$$
>  <compound>
COC(C)(C)CCCC(C)CC=O (stereo not drawn)

>  <viability change, negative = cytotoxic>
inactive

$$$$
>  <compound>
CCOC(=O)[C@H](CCc1ccccc1)N[C@@H](C)C(=O)N1[C@H](C(=O)O)C[C@@H]2CCC[C@@H]21

>  <viability change, negative = cytotoxic>
inactive

$$$$
>  <compound>
NS(=O)(=O)c1ccccc1Cl

>  <viability change, negative = cytotoxic>
inactive

$$$$
>  <compound>
CCCCCCCCCCCCN(CCCCCCCCCCCC)CCCCCCCCCCCC

>  <viability change, negative = cytotoxic>
inactive

$$$$
>  <compound>
Cn1c(N)c(N=O)c(=O)n(C)c1=O

>  <viability change, negative = cytotoxic>
inactive

$$$$
>  <compound>
CCCCCCCCCCCCCC=O

>  <viability change, negative = cytotoxic>
1.02% [at 8.36 µM] (inactive)

$$$$
>  <compound>
c1ccc(CC2=NCCN2)cc1

>  <viability change, negative = cytotoxic>
inactive

$$$$
>  <compound>
OC1CCCCC1c1ccccc1 (stereo not drawn)

>  <viability change, negative = cytotoxic>
inactive

$$$$
>  <compound>
C/C=C(\C)C#N

>  <viability change, negative = cytotoxic>
inactive

$$$$
>  <compound>
O=[N+]([O-])c1ccc(F)cc1F

>  <viability change, negative = cytotoxic>
inactive

$$$$
>  <compound>
CCC(=O)OC(C)c1ccccc1 (stereo not drawn)

>  <viability change, negative = cytotoxic>
inactive

$$$$
>  <compound>
CN1C(=O)N(C)C(O)C1O (stereo not drawn)

>  <viability change, negative = cytotoxic>
inactive

$$$$
>  <compound>
N[C@H]1CN(c2c(F)cc3c(=O)c(C(=O)O)cn(C4C[C@H]4F)c3c2Cl)CC12CC2 (stereo partly drawn)

>  <viability change, negative = cytotoxic>
inactive

$$$$
>  <compound>
Nc1ccccc1S(=O)(=O)O

>  <viability change, negative = cytotoxic>
inactive

$$$$
>  <compound>
Cc1nc2c([nH]1)c(=O)n(C)c(=O)n2Cc1ccco1

>  <viability change, negative = cytotoxic>
inactive

$$$$
>  <compound>
CC(C)(c1ccc(O)cc1)c1ccc(O)cc1

>  <viability change, negative = cytotoxic>
inactive

$$$$
>  <compound>
CCCC(=O)O[C@]1(C(=O)CO)CC[C@H]2[C@@H]3CCC4=CC(=O)CC[C@]4(C)[C@H]3[C@@H](O)C[C@@]21C

>  <viability change, negative = cytotoxic>
inactive

$$$$
